Experiment: inhibitors of E-selectin induction by TNFa, primary screen, imaging, HUVEC, immunofluorescence, MLSMR starter and 10KST1 sets (AID 487);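 further: signal is fraction of cell area covered by stained E-selectin grains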
Conditions: HUVEC TNFalpha-induced E-selectin immunofluorescence imaging, at 2 µM; stronger effect = higher value
PROPERTY: inhibition (%)
Quick note: give the figure in %, leave out the unit.

Worked set:
CCNc1nc(NC(C)C)nc(N(C#N)C(C)C(=O)N(C)C)n1 (configuration not stated)    -39.6
COCCNc1nc2c(c(=O)n(Cc3ccc(OC)cc3)c(=O)n2C)n1C    -26.3
COCCNc1cc(C)c(C#N)c2nc3ccccc3n12    -78.8
COCCOC(=O)C1=C(C)NC(C)=C(C(=O)OC(C)C)C1c1cccc([N+](=O)[O-])c1 (configuration not stated)    -38.8
CCC1(C)Cc2c(C#N)c(N)sc(=S)c2CO1 (configuration not stated)    -128

// inhibition lookup, molecule = CC(C)C1Cc2c(sc3c2c(=O)n(Cc2ccccc2)c2nncn32)CO1 (configuration not stated) , result: -2.8

// inhibition lookup, molecule = O=C1CCC(=O)N1CN(C(=O)c1ccco1)c1ccc(Cl)c(Cl)c1 , result: -72.5

---

Target: Dual specificity protein phosphatase 6 (Homo sapiens) (UniProt Q16828)
Sequence (Q16828 whole entry, looked up): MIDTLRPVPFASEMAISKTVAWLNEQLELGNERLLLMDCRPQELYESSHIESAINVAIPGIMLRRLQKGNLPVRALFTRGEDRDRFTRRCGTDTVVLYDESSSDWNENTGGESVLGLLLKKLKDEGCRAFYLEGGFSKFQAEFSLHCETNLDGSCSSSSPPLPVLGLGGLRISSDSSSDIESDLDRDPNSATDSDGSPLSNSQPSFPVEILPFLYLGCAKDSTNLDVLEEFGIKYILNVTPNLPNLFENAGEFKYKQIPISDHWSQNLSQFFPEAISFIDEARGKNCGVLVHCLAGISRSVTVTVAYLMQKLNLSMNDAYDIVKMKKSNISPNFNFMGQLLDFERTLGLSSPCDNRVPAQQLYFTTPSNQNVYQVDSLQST
Assay: DUSP6 inhibitors restoring Erk phosphorylation by chemical complementation, primary imaging in DUSP6-transfected HeLa (AID 609);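 on inhibition: phospho-Erk level distribution per well compared with pooled transfected vehicle control wells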
Conditions: HeLa MKP-3 transfected, phospho-Erk imaging KS statistic; at 10 µM; stronger effect = higher value; cells stimulated with TPA for 15 min
PROPERTY: inhibition (%)
Quick note: give the figure in %, leave out the unit.

Worked set:
CCCC(=O)O[C@]1(C(=O)COC(C)=O)CC[C@H]2[C@@H]3C[C@H](F)C4=CC(=O)C=C[C@]4(C)[C@@]3(F)[C@@H](O)C[C@@]21C    -0.493
Cc1ccc(C2C(C(=O)c3cc4ccccc4o3)=C(O)C(=O)N2CCCN(C)C)cc1 (stereo not given)    -2.91
Cc1nnc(SCC(=O)N2CCC(C(N)=O)CC2)s1    -3.95
CCOC(=O)c1[nH]c2cc3c(cc2c1NC(=O)CN1CCC2(CC1)OCCO2)OCO3    22.8

// inhibition lookup, molecule = O=C(C1=C(O)C(=O)N(CCCN2CCOCC2)C1c1ccccn1)c1cccs1 (stereo not given) , result: -3.5

// inhibition lookup, molecule = N#CC(C(=O)NC1CC1)c1nc2ccccc2nc1N1CCN(C/C=C/c2ccccc2)CC1 (stereo not given) , result: 2.46

// inhibition lookup, molecule = CN1CCN(/C=N/c2sc3c(c2C#N)CCCCC3)CC1 , result: -4.27

// inhibition lookup, molecule = CCNC(=O)N(C)c1nncnc1C(=O)NC , result: 2.92

// inhibition lookup, molecule = C=CCOC(=O)C1=C(C)NC(SCC(=O)N(CC)CC)=C(C#N)C1c1ccco1 (stereo not given) , result: -5.89

// inhibition lookup, molecule = CC1(C)Cc2c(sc3c2C(=O)N(c2ccccc2)C2=NCCCN23)CO1 , result: 18.9

---

Test: DUSP6 inhibitors restoring Erk phosphorylation by chemical complementation, primary imaging in DUSP6-transfected HeLa (AID 609)
Settings: HeLa MKP-3 transfected, phospho-Erk imaging KS statistic; measured here: nuclear pErk red intensity z-score; at 10 µM; stronger effect = higher value; cells stimulated with TPA for 15 min
PROPERTY: z-score
I'd appreciate a reply containing only the number, no unit.

Cn1c2ccccc2c2nn(-c3ccccc3)c(=O)cc21    -0.375
N#C/C(=C\N1CCN(Cc2ccc3c(c2)OCO3)CC1)c1nc2ccccc2s1    0.578

// z-score lookup, compound = CN(C)c1ccc(C2C3C(=O)N(c4ccc(C(=O)O)cc4)C(=O)C3ON2c2ccccc2)cc1 (stereo not given) , result: 0.576

// z-score lookup, compound = CC(C)CC(C(=O)O)C(C)CC(=O)Nc1ccn(-c2ccccc2)n1 (stereo not given) , result: -0.175

// z-score lookup, compound = COCCOC(=O)C1=C(C)NC(SCC(=O)NC(C)(C)C)=C(C#N)C1c1ccco1 (stereo not given) , result: -0.28

---

Molecular target: Alpha-2C adrenergic receptor (Homo sapiens)
Experiment: modulators of alpha2C/GIRK thallium flux, primary screen, cell-based, HEK293 alpha2C/GIRK1/2 (AID 624);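 further: slope of fluorescence ratio to pre-addition baseline per second over 15 to 24 s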
Conditions: thallium flux BTC fluorescence, at 10 µM, actives lie on both sides
PROPERTY: slope
I'd appreciate a reply containing only the number, no unit.

Worked set:
Cc1cc(C)n(CC(=O)n2nc(C)cc2C)n1    0.00514
CCOC(=O)CSc1nc(N)c2c3c(sc2n1)CCCC3    0.0064
CN(C)C(CN1C(=O)C2CC=CCC2C1=O)c1cn(C)c2ccccc12 (stereo unspecified)    0.00544
Cc1ccc(-n2c(=O)c3c4c(sc3n3c(C)nnc23)COC(C(C)C)C4)cc1 (stereo unspecified)    0.00541
COc1cccc(/C=C2/CN(C)CC3=C2OC(N)=C(C#N)C3c2cccc(OC)c2)c1 (stereo unspecified)    0.00546
CCOc1ccc(C2C(C(=O)c3ccc(C)o3)=C(O)C(=O)N2CCCN(CC)CC)cc1 (stereo unspecified)    0.00538

// slope lookup, compound = CCN(CC)CCNC(=O)c1ccccc1N , result: 0.00488

---

Test: DUSP6 inhibitors restoring Erk phosphorylation by chemical complementation, primary imaging in DUSP6-transfected HeLa (AID 609)
Conditions: HeLa MKP-3 transfected, phospho-Erk imaging KS statistic; measured here: nuclear pErk red intensity z-score; at 10 µM; stronger effect = higher value; cells stimulated with TPA for 15 min
PROPERTY: z-score
I'd appreciate a reply containing only the number, no unit.

Worked set:
COC(=O)c1ccc(Nc2cc(C)nc(-c3ccccc3O)n2)cc1    -0.242
COc1ccc(NC(=O)C2CSC3c4ccccc4C(=O)N23)cc1 (stereo unspecified)    -1.59
COC1=CC(=O)CC(C)C12Oc1c(Cl)c(OC)cc(OC)c1C2=O (stereo unspecified)    1.79
O=C(O)CN(c1ccccc1)C1SC(=O)NC1=O (stereo unspecified)    0.397
C=CCSc1nc(C)c(CC=C)c(=O)[nH]1    0.352

// moving on: another record for z-score
// z-score lookup, compound = COc1ccccc1N1CCN(CC(O)COc2cccc3ccccc23)CC1 (stereo unspecified) , result: -2.39

---

Assay: DUSP6 inhibitors restoring Erk phosphorylation by chemical complementation, primary imaging in DUSP6-transfected HeLa (AID 609)
Conditions: HeLa MKP-3 transfected, phospho-Erk imaging KS statistic; measured here: nuclear c-Myc green intensity z-score; at 10 µM; cells stimulated with TPA for 15 min
PROPERTY: z-score
I'd appreciate a reply containing only the number, no unit.

Worked set:
CCN(CC)S(=O)(=O)c1cccc2c(N(C)C)cccc12    -0.162
CCCCc1nc2n[nH]c(N)c2c2c1CCCC2    1.39

// z-score lookup, molecule = Cc1ccc(C2CC(C(F)(F)F)n3ncc(C(N)=O)c3N2)cc1 (configuration not stated) , result: -0.144

// z-score lookup, molecule = CCn1cc(C(=O)O)c(=O)c2cc(F)c(N3CCNCC3)nc21 , result: -0.267

// z-score lookup, molecule = Cc1cccc(C)c1OCC(O)CNS(=O)(=O)c1ccccc1C(=O)N1CCCCC1 (configuration not stated) , result: 2.33

// z-score lookup, molecule = CCOP(=O)(c1ccccc1)c1nc(-c2ccccc2C)oc1N1CCCCC1 (configuration not stated) , result: 0.675

// z-score lookup, molecule = CC1CCc2cc(F)cc3c(O)c(C(=O)Nc4cnccn4)c(=O)n1c23 (configuration not stated) , result: 0.74

// z-score lookup, molecule = CCOc1nc(SCCOc2ccc(C)cc2)nc(N(C)C)n1 , result: -0.00429

// z-score lookup, molecule = O=c1oc2cc(O)ccc2c2oc3cc(O)ccc3c12 , result: 1.66

// z-score lookup, molecule = Cc1c(/C(O)=C2\C(=O)C(=O)N(CCCN(C)C)C2c2ccccc2)cnn1-c1ccccc1 (configuration not stated) , result: 0.596

// z-score lookup, molecule = CN(C)CCN(Cc1ccccc1)c1ccccn1 , result: 0.385

// z-score lookup, molecule = CC1(C)Cc2c(c(-c3ccccc3)nc3[nH][nH]c(=O)c23)CO1 , result: -0.0557

// z-score lookup, molecule = Cc1nnc(SCc2nc3ccccc3[nH]2)s1 , result: -0.712

// z-score lookup, molecule = CCN1C(=O)CC(N2CCN(c3ccc(OC)cc3)CC2)C1=O (configuration not stated) , result: -0.53

// z-score lookup, molecule = COc1cc(C2C(C(=O)c3cccs3)=C(O)C(=O)N2c2cc(C)on2)ccc1O (configuration not stated) , result: -0.247

// z-score lookup, molecule = CCCCN(CCCC)c1nc2ccccc2nc1C(C#N)C(=O)NCCCOC (configuration not stated) , result: 0.7

// z-score lookup, molecule = Nc1ncnc2nc(SCc3ccccc3)[nH]c12 , result: 1.92

// z-score lookup, molecule = CCN1CCc2c(C#N)c(N3CCOCC3)nc(NCc3ccccc3)c2C1 , result: -1.7

// z-score lookup, molecule = c1ccc2c(c1)NC(c1ccncc1)n1c-2nc2ccccc21 (configuration not stated) , result: 1.48

// z-score lookup, molecule = Cc1cc(C)cc(CC2CC(=O)N(c3cc(C)on3)C2=O)c1 (configuration not stated) , result: -0.209
